Hey, just so you know, these numbers are from patent US9493537B2.

assay.info: Biodistribution in B16/F1 melanoma-bearing C57 mice
Assay type: in vivo
condition.details: female, C57, mouse, pancreas, iv, 0.037 MBq, total radioactivity, 24 h post-injection; read-out: Pancreas uptake
observable: tissue uptake at 24 h (%ID/g)
Numeric only. Scale: %ID/g

Value of tissue uptake at 24 h reported for the compound CCCC[C@H](NC(=O)CN1CCN(CC(=O)O)CCN(CC(=O)O)CCN(CC(=O)O)CC1)C(=O)N[C@H]1CC(=O)NCCCC[C@@H](C(N)=O)NC(=O)[C@H](Cc2c[nH]c3ccccc23)NC(=O)[C@H](CCCNC(=N)N)NC(=O)[C@@H](Cc2ccccc2)NC(=O)[C@H](Cc2c[nH]cn2)NC1=O [^111In-DOTA-Nle-CycMSHhex, metal not drawn] is 0.23

---

assay.info: Biodistribution in B16/F1 melanoma-bearing C57 mice
Format: in vivo
condition.details: female, C57, mouse, stomach, iv, 0.037 MBq, total radioactivity, 4 h post-injection; read-out: Stomach uptake
observable: tissue uptake at 4 h (%ID/g)
Numeric only. Scale: %ID/g

Value of tissue uptake at 4 h reported for the compound CCCC[C@H](NC(=O)CN1CCN(CC(=O)O)CCN(CC(=O)O)CCN(CC(=O)O)CC1)C(=O)N[C@H]1CC(=O)NCCCC[C@@H](C(N)=O)NC(=O)[C@H](Cc2c[nH]c3ccccc23)NC(=O)[C@H](CCCNC(=N)N)NC(=O)[C@@H](Cc2ccccc2)NC(=O)[C@H](Cc2c[nH]cn2)NC1=O [^111In-DOTA-Nle-CycMSHhex, metal not drawn] is 1.49

---

assay.info: Biodistribution in B16/F1 melanoma-bearing C57 mice
Format: in vivo
condition.details: female, C57, mouse, pancreas, iv, 0.037 MBq, total radioactivity, 0.5 h post-injection; read-out: Pancreas uptake
observable: tissue uptake at 0.5 h (%ID/g)
Numeric only. Scale: %ID/g

Value of tissue uptake at 0.5 h reported for the molecule CCCC[C@H](NC(=O)CN1CCN(CC(=O)O)CCN(CC(=O)O)CCN(CC(=O)O)CC1)C(=O)N[C@H]1CC(=O)NCCCC[C@@H](C(N)=O)NC(=O)[C@H](Cc2c[nH]c3ccccc23)NC(=O)[C@H](CCCNC(=N)N)NC(=O)[C@@H](Cc2ccccc2)NC(=O)[C@H](Cc2c[nH]cn2)NC1=O [^111In-DOTA-Nle-CycMSHhex, metal not drawn] is 1.18

---

assay.info: Biodistribution in B16/F1 melanoma-bearing C57 mice
Format: in vivo
condition.details: female, C57, mouse, brain, iv, total radioactivity, 2 h post-injection, L-lysine co-injection; read-out: Brain uptake
observable: tissue uptake at 2 h (%ID/g)
Numeric only. Scale: %ID/g

Value of tissue uptake at 2 h reported for the compound CCCC[C@H](NC(=O)CN1CCN(CC(=O)O)CCN(CC(=O)O)CCN(CC(=O)O)CC1)C(=O)N[C@H]1CC(=O)NCCCC[C@@H](C(N)=O)NC(=O)[C@H](Cc2c[nH]c3ccccc23)NC(=O)[C@H](CCCNC(=N)N)NC(=O)[C@@H](Cc2ccccc2)NC(=O)[C@H](Cc2c[nH]cn2)NC1=O [^111In-DOTA-Nle-CycMSHhex, metal not drawn] is 0.04

---

assay.info: Biodistribution in B16/F1 melanoma-bearing C57 mice
Type: in vivo
condition.details: female, C57, mouse, stomach, iv, 0.037 MBq, total radioactivity, 0.5 h post-injection; read-out: Stomach uptake
observable: tissue uptake at 0.5 h (%ID/g)
Numeric only. Scale: %ID/g

Value of tissue uptake at 0.5 h reported for the compound CCCC[C@H](NC(=O)CN1CCN(CC(=O)O)CCN(CC(=O)O)CCN(CC(=O)O)CC1)C(=O)N[C@H]1CC(=O)NCCCC[C@@H](C(N)=O)NC(=O)[C@H](Cc2c[nH]c3ccccc23)NC(=O)[C@H](CCCNC(=N)N)NC(=O)[C@@H](Cc2ccccc2)NC(=O)[C@H](Cc2c[nH]cn2)NC1=O [^111In-DOTA-Nle-CycMSHhex, metal not drawn] is 3.2

---

assay.info: Biodistribution in B16/F1 melanoma-bearing C57 mice
Assay type: in vivo
condition.details: female, C57, mouse, muscle, iv, 0.037 MBq, total radioactivity, 4 h post-injection; read-out: Muscle uptake
observable: tissue uptake at 4 h

Value of tissue uptake at 4 h reported for the compound CCCC[C@H](NC(=O)CN1CCN(CC(=O)O)CCN(CC(=O)O)CCN(CC(=O)O)CC1)C(=O)N[C@H]1CC(=O)NCCCC[C@@H](C(N)=O)NC(=O)[C@H](Cc2c[nH]c3ccccc23)NC(=O)[C@H](CCCNC(=N)N)NC(=O)[C@@H](Cc2ccccc2)NC(=O)[C@H](Cc2c[nH]cn2)NC1=O [^111In-DOTA-Nle-CycMSHhex, metal not drawn] is 0.1 %ID/g

---

assay.info: Biodistribution in B16/F1 melanoma-bearing C57 mice
Format: in vivo
condition.details: female, C57, mouse, lung, iv, total radioactivity, 2 h post-injection, NDP blockade; read-out: Lung uptake
observable: tissue uptake at 2 h (%ID/g)
Numeric only. Scale: %ID/g

Value of tissue uptake at 2 h reported for the compound CCCC[C@H](NC(=O)CN1CCN(CC(=O)O)CCN(CC(=O)O)CCN(CC(=O)O)CC1)C(=O)N[C@H]1CC(=O)NCCCC[C@@H](C(N)=O)NC(=O)[C@H](Cc2c[nH]c3ccccc23)NC(=O)[C@H](CCCNC(=N)N)NC(=O)[C@@H](Cc2ccccc2)NC(=O)[C@H](Cc2c[nH]cn2)NC1=O [^111In-DOTA-Nle-CycMSHhex, metal not drawn] is 0.3

---

assay.info: Biodistribution in B16/F1 melanoma-bearing C57 mice
Format: in vivo
condition.details: female, C57, mouse, intestines, iv, total radioactivity, 2 h post-injection, NDP blockade; read-out: Intestines, percent injected dose
observable: tissue uptake dose at 2 h (%ID)
Numeric only. Scale: %ID

Value of tissue uptake dose at 2 h reported for the molecule CCCC[C@H](NC(=O)CN1CCN(CC(=O)O)CCN(CC(=O)O)CCN(CC(=O)O)CC1)C(=O)N[C@H]1CC(=O)NCCCC[C@@H](C(N)=O)NC(=O)[C@H](Cc2c[nH]c3ccccc23)NC(=O)[C@H](CCCNC(=N)N)NC(=O)[C@@H](Cc2ccccc2)NC(=O)[C@H](Cc2c[nH]cn2)NC1=O [^111In-DOTA-Nle-CycMSHhex, metal not drawn] is 1.14

---

assay.info: Biodistribution in B16/F1 melanoma-bearing C57 mice
Format: in vivo
condition.details: female, C57, mouse, bone, iv, 0.037 MBq, total radioactivity, 0.5 h post-injection; read-out: Bone uptake
observable: tissue uptake at 0.5 h

Value of tissue uptake at 0.5 h reported for the compound CCCC[C@H](NC(=O)CN1CCN(CC(=O)O)CCN(CC(=O)O)CCN(CC(=O)O)CC1)C(=O)N[C@H]1CC(=O)NCCCC[C@@H](C(N)=O)NC(=O)[C@H](Cc2c[nH]c3ccccc23)NC(=O)[C@H](CCCNC(=N)N)NC(=O)[C@@H](Cc2ccccc2)NC(=O)[C@H](Cc2c[nH]cn2)NC1=O [^111In-DOTA-Nle-CycMSHhex, metal not drawn] is 1.34 %ID/g

---

assay.info: Biodistribution in B16/F1 melanoma-bearing C57 mice
Assay type: in vivo
condition.details: female, C57, mouse, skin, iv, total radioactivity, 2 h post-injection, L-lysine co-injection; read-out: Skin uptake
observable: tissue uptake at 2 h (%ID/g)
Numeric only. Scale: %ID/g

Value of tissue uptake at 2 h reported for the compound CCCC[C@H](NC(=O)CN1CCN(CC(=O)O)CCN(CC(=O)O)CCN(CC(=O)O)CC1)C(=O)N[C@H]1CC(=O)NCCCC[C@@H](C(N)=O)NC(=O)[C@H](Cc2c[nH]c3ccccc23)NC(=O)[C@H](CCCNC(=N)N)NC(=O)[C@@H](Cc2ccccc2)NC(=O)[C@H](Cc2c[nH]cn2)NC1=O [^111In-DOTA-Nle-CycMSHhex, metal not drawn] is 1.02

---

assay.info: Biodistribution in B16/F1 melanoma-bearing C57 mice
Format: in vivo
condition.details: female, C57, mouse, lung, iv, 0.037 MBq, total radioactivity, 0.5 h post-injection; read-out: Lung uptake
observable: tissue uptake at 0.5 h (%ID/g)
Numeric only. Scale: %ID/g

Value of tissue uptake at 0.5 h reported for the molecule CCCC[C@H](NC(=O)CN1CCN(CC(=O)O)CCN(CC(=O)O)CCN(CC(=O)O)CC1)C(=O)N[C@H]1CC(=O)NCCCC[C@@H](C(N)=O)NC(=O)[C@H](Cc2c[nH]c3ccccc23)NC(=O)[C@H](CCCNC(=N)N)NC(=O)[C@@H](Cc2ccccc2)NC(=O)[C@H](Cc2c[nH]cn2)NC1=O [^111In-DOTA-Nle-CycMSHhex, metal not drawn] is 2.45

---

assay.info: Biodistribution in B16/F1 melanoma-bearing C57 mice
Assay type: in vivo
condition.details: female, C57, mouse, muscle, iv, total radioactivity, 2 h post-injection, NDP blockade; read-out: Muscle uptake
observable: tissue uptake at 2 h (%ID/g)
Numeric only. Scale: %ID/g

Value of tissue uptake at 2 h reported for the molecule CCCC[C@H](NC(=O)CN1CCN(CC(=O)O)CCN(CC(=O)O)CCN(CC(=O)O)CC1)C(=O)N[C@H]1CC(=O)NCCCC[C@@H](C(N)=O)NC(=O)[C@H](Cc2c[nH]c3ccccc23)NC(=O)[C@H](CCCNC(=N)N)NC(=O)[C@@H](Cc2ccccc2)NC(=O)[C@H](Cc2c[nH]cn2)NC1=O [^111In-DOTA-Nle-CycMSHhex, metal not drawn] is 0.02
